- Tested on: ACVR2B;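 further: KINOMEscan kinase panel screen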
- condition_set: concentration: 1 μM,replicates: in singlicate; n = 1
measured_attribute: %Inh (%)
Answers are plain numbers, in %.

compound	test_system	unit_annotation	%Inh
COc1cc2c(Nc3ccc(NC(=O)c4ccccc4)cc3)ncnc2cc1OCCCN1CCOCC1 [GSK301329]	ACVR2B	%	0
COc1ccc(Nc2nccc(N3CCC(NC(=O)c4cccc(C#N)c4)C3)n2)cc1 (centres unmarked) [GSK1379730]	ACVR2B	%	0
C[C@@H]1CNc2c(sc3ccc4nc(-c5ccncc5)ccc4c23)C(=O)N1	ACVR2B	%	30
CN(c1ccccc1CNc1nc(Nc2ccc3c(c2)CC(=O)N3)ncc1C(F)(F)F)S(C)(=O)=O	ACVR2B	%	0
CS(=O)c1ccc(-c2coc3ccc(-c4n[nH]c(=O)o4)cc23)cc1 (centres unmarked)	ACVR2B	%	19
CC(=O)c1c(-c2ccncc2)[nH]c(-c2ccncc2)c1C [GW493036]	ACVR2B	%	17
Cn1ccc2ncnc(Oc3ccc(NC(=O)Nc4cccc(C(F)(F)F)c4)c(Cl)c3)c21	ACVR2B	%	47
Cn1cc(-c2cccc3c(N)c(C(N)=O)nnc23)cn1	ACVR2B	%	29

For each of the items listed, what is its %Inh?
1. COC(=O)c1cccc(NC(=O)NC2CCN(c3ccnc(Nc4cc(OC)c(OC)c(OC)c4)n3)C2)c1 (centres unmarked) [GSK1379767]
2. O=C(NCC1CC1)c1ccc(-c2cc(C(=O)NC3CC3)ccc2F)cc1 [GW810445]
3. Cc1ccn2nc(-c3ccc(F)cc3)c(-c3ccncc3)c2c1.Cl [GW457859]
4. CCn1c(-c2nonc2N)nc2cncc(CNC3CCNCC3)c21.Cl [SB-747651]
5. Cc1ccc(C(=O)Nc2ccc(Oc3ccc4nc(NC(=O)C5CC5)cn4c3)c(F)c2)c(=O)n1-c1ccccc1

Response:
[6, 6, 32, 0, 16]

For each of the items listed, what is its %Inh?
1. CC(C(=O)NC1CCN(c2ccnc(Nc3ccc(F)cc3)n2)C1)c1ccc(Cl)cc1 (centres unmarked) [GSK1379713]
2. Cn1ccc2ncnc(Oc3ccc(NC(=O)Nc4cc(C(C)(C)C)on4)c(Cl)c3)c21
3. COc1cc2nccc(Nc3ccc(Oc4ccccc4)cc3)c2cc1OC.Cl [GI261656]
4. Cl.c1ccc(Oc2ccc(Nc3ccnc4cc(-c5ccc(CN6CCNCC6)o5)ccc34)cc2)nc1 [GW567142]
5. Cl.Cl.NC[C@H](CC1CCCCC1)NC(=O)c1ccc(-c2ccnc3[nH]ccc23)s1 [GSK1581428]
6. COc1cc(Nc2nccc(N3CCC(NC(=O)c4cccc(C#N)c4)C3)n2)cc(OC)c1OC (centres unmarked) [GSK1379751]
7. CSc1nccc(-c2c(-c3ccc(F)cc3)ncn2CCCN2CCOCC2)n1.Cl [SB-217146]
8. COc1cccc(OC)c1C(=O)Nc1cccc(-c2nn3ccccc3c2-c2ccnc(Nc3cccc(F)c3)n2)c1 [GSK361065]

Response:
1. 0
2. 12
3. 0
4. 41
5. 0
6. 0
7. 0
8. 27

For each of the items listed, what is its %Inh?
1. CCN1CCN(CCCC(=O)Nc2n[nH]c3nc(-c4ccc(O)cc4)c(Br)cc23)CC1 [SB-731579]
2. COC(=O)c1cccc(NC(=O)NC2CCN(c3ccnc(NCc4ccc(F)cc4)n3)CC2)c1 [GSK1379860]
3. C[C@@H](Oc1cc(-n2cnc3ccc(-c4ccncc4)cc32)sc1C(N)=O)c1ccccc1Cl [GSK483724]

Response:
2
23
0
